# measuredOn: T1, Hu HER3: CD33-[Human HER3, residues 20-640]-TAG (human, UniProt P21860 20-640)
# T1 construct: also called hu HER3-Tag; HER3-Tag; not shown: C-terminal TAG (e.g., FLAG TAG)
# assayDetails: SET, IgG vs soluble HER3-Tag
reportedEndpoint: Kd (pM)
Provide only the numeric value, understood in pM.

What value of Kd has been reported for the following binder? MOR13763 (antibody, human IgG1, kappa, V domains shown, tested as IgG) VH: QVQLVQSGAEVKKPGESLKISCKGSGYSFTSYWVAWVRQMPGKGLEWMGIIYPGQSDTIYSPSFQGQVTISADKSISTAYLQWSSLKASDTAMYYCARVHIIQPPSAWSYNAMDVWGQGTLVTVSS VL: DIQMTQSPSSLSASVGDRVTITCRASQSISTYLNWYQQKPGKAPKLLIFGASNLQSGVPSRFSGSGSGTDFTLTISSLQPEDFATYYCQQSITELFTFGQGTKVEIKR
27

Follow-up entry: MOR13750 (antibody, human IgG1, kappa, V domains shown, tested as IgG) VH: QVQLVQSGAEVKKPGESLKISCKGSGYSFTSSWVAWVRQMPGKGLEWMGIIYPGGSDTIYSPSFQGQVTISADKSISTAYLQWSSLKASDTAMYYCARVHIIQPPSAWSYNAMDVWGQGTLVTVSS VL: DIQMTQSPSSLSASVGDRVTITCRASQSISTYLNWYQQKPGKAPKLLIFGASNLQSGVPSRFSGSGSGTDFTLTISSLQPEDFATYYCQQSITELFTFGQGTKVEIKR
160

What about MOR13758 (antibody, human IgG1, kappa, V domains shown, tested as IgG) VH: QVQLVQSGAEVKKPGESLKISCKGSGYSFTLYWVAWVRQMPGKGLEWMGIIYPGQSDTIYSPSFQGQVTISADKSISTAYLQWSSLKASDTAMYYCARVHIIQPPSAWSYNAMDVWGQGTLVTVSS VL: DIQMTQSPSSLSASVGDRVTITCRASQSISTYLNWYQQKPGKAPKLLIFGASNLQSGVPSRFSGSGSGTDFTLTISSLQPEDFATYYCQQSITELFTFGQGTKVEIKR ?
21
